Value source: ChEMBL document CHEMBL4002636

Property: IC50; scope: individual compounds
- Test system: MDA-MB-435
- measurement.notes: Cytotoxicity against human MDA-MB-435 cells assessed as growth inhibition after 48 hrs by MTT assay
- Assay type: functional, cell-based
- settings: MDA-MB-435, 48 h

Guide cases for IC50, answers given:
compound | target.under.test | IC50
COC(=O)c1cc(OC)c(OC)c2oc3cc(C)ncc3c(=O)c12 | MDA-MB-435 | > 50 µM
COC(=O)c1cc(OC)c(OC(C)=O)c2oc3cc(C)ncc3c(=O)c12 | MDA-MB-435 | > 50 µM
O=C(O)CCCCN1Cc2c(O)cc(O)cc2C1=O | MDA-MB-435 | > 50 µM
COC(=O)c1cc(OC)cc2oc3cc(C)ncc3c(=O)c12 | MDA-MB-435 | > 50 µM
COc1cc(O)c2c(c1)C(=O)c1cc(C)ncc1C2=O | MDA-MB-435 | 5.32 µM

# next compound below
Query: Which IC50 value is on record for COc1cccc2c1C(=O)c1c(O)c3c(c(O)c1C2=O)C[C@@](O)(C(=O)CO)C[C@@H]3O[C@H]1C[C@H](N)[C@@H](O)[C@H](C)O1 [EPIRUBICIN] ?
Response: 0.26 µM
